experimentalTarget: T1, AMHRII receptor expressed on cells (cov434-AMHRII, Asc 1, META 2815) (human, UniProt Q16671 18-573)
T1 sequence (looked up): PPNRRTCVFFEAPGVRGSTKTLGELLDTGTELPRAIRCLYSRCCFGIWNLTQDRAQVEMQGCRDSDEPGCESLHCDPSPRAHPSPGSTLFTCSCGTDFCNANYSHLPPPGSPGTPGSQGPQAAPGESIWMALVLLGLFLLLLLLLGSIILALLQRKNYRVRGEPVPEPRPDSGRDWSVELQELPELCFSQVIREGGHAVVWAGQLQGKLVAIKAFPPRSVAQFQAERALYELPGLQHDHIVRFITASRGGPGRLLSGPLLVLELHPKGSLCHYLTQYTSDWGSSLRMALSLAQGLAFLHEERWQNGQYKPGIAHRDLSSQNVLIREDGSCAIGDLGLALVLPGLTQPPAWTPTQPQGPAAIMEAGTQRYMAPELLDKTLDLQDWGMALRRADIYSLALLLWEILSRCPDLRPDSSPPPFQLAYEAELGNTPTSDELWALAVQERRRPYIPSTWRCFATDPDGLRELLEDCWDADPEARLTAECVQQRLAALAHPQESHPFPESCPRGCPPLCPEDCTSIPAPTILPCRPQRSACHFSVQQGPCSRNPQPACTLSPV
testName: cell-based or functional assay
readout: % of lysis of ASC1 cells (ADCC with NK cells, LDH release) at 0.001 ng/ml antibody (%)
Give just the number in %; leave the unit off.

Given mutated humanized 12G4 antibody 6B-78 produced in YB2/0 (antibody, human IgG1, kappa, V domains shown, Chains without leader; Mutation VL-E184K; also called 6B_78 YB2/0; R901 6B78) VH: QVQLVQSGAEVKKPGASVKVSCKASGYTFTSYHIHWVRQAPGQRLEWMGWIYPGDDSTKYSQKFQGRVTITRDTSASTAYMELSSLRSEDTAVYYCTRGDRFAYWGQGTLVTVSS VL: DIQMTQSPSTLSASVGDRVTITCRASSSVRYIAWYQQKPGKAPKLLIYSTSSLKSGVPSRFSGSGSGTEFTLTISSLQPDDFATYYCLQWSSYPWTFGGGTKVEIKR , respond with its % of lysis of ASC1 cells (ADCC with NK cells, LDH release) at 0.001 ng/ml antibody.
0

Quote % of lysis of ASC1 cells (ADCC with NK cells, LDH release) at 0.001 ng/ml antibody reported for mutated humanized 12G4 antibody 3C-23K produced in YB2/0 (antibody, human IgG1, kappa, V domains shown, Chains without leader; also called 3C_23K YB2/0; 3C-23K-YB2/0) VH: QVRLVQSGAEVKKPGASVKVSCKASGYTFTSYHIHWVRQAPGQRLEWMGWIYPGDDSTKYSQKFQGRVTITRDTSASTAYMELSSLRSEDTAVYYCTRGDRFAYWGQGTLVTVSS VL: DIQMTQSPSTLSASVGDRVTITCRASSSVRYIAWYQQKPGKAPKLLTYPTSSLKSGVPSRFSGSGSGTEFTLTISSLQPDDFATYYCLQWSSYPWTFGGGTKVEIKR please.
0

Give recorded % of lysis of ASC1 cells (ADCC with NK cells, LDH release) at 0.001 ng/ml antibody. mutated humanized 12G4 antibody 3C-23 produced in YB2/0 (antibody, human IgG1, kappa, V domains shown, Chains without leader; Mutations VH-Q3R, VL-I177T/S179P; also called 3C_23 YB2/0; R901 3C23) VH: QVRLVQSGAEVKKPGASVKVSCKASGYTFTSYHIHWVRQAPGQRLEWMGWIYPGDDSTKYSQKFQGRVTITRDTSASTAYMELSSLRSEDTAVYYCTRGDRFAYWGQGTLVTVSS VL: DIQMTQSPSTLSASVGDRVTITCRASSSVRYIAWYQQKPGKAPKLLTYPTSSLESGVPSRFSGSGSGTEFTLTISSLQPDDFATYYCLQWSSYPWTFGGGTKVEIKR
0

The origin of these recorded values is patent US20130136743A1.
